# credit: ChEMBL document CHEMBL1153937

experiment: Cytotoxicity against human MT4 cells by MTS method; type: cell-based
ENDPOINT_NAME: CC50

Exercise: Please look up its CC50: Cc1cn([C@H]2C[C@H](N=[N+]=[N-])[C@@H](CO)O2)c(=O)[nH]c1=O [ZIDOVUDINE]
Key: 61 µM

Exercise: Similarly, `CSc1ncnc2c([C@H]3C=C[C@@H](CO)O3)scc12` ?
Key: 70 µM

Exercise: One more molecule: `O=c1[nH]cnc2c([C@@H]3O[C@H](CO)[C@@H](O)[C@H]3O)scc12`
Key: > 100 µM

Exercise: Now the molecule `Nc1ncnc2c([C@H]3C=C[C@@H](CO)O3)scc12`
Key: 7.3 µM

Exercise: Now consider `OC[C@@H]1C=C[C@H](c2scc3c(O)ncnc23)O1` and answer again.
Key: > 100 µM

Exercise: And for `Nc1ncnc2c([C@H]3CC[C@@H](CO)O3)scc12` ?
Key: > 75 µM

Exercise: Same again, this time with `OC[C@H]1O[C@@H](c2scc3c(=S)[nH]cnc23)[C@H](O)[C@@H]1O`
Key: 2.9 µM

Exercise: How about this molecule: `OC[C@@H]1CC[C@H](c2scc3c(O)ncnc23)O1`
Key: > 100 µM
